Item-by-item account of Plat
Species on record: Rattus norvegicus
Experiment: Open TG-GATES - Regimen: Single
Format: toxicity, organism-based, Sprague-Dawley
Set-up: regimen Single, gender Male, age 6 weeks
Conditions: in vivo, po, 1000 mg/kg, 24 h, tissue Blood, route gavage, dose level High
readout kind: Plat (x10_4/uL)

[[record]]
compound = "NC(N)=Nc1nc(CSCCC(N)=NS(N)(=O)=O)cs1"
number = 129.4

[[record]]
compound = "CCOC(=O)CCC(=O)O[C@H]1[C@H](O[C@@H]2[C@@H](C)[C@H](O[C@H]3C[C@@](C)(OC)[C@@H](O)[C@H](C)O3)[C@@H](C)C(=O)O[C@H](CC)[C@@](C)(O)[C@H](O)[C@@H](C)C(=O)[C@H](C)C[C@@]2(C)O)O[C@H](C)C[C@@H]1N(C)C [ERYTHROMYCIN ETHYLSUCCINATE]"
number = 125.6

[[record]]
compound = "COc1ccc2[nH]c([S+]([O-])Cc3ncc(C)c(OC)c3C)nc2c1 (centres undefined)"
number = 129.5

[[record]]
compound = "COC1=CC(=O)C[C@@H](C)[C@]12Oc1c(Cl)c(OC)cc(OC)c1C2=O"
number = 123.4

